Biological target: first-generation H1 LAH construct H1frThrST (Influenza A virus (H1))
Experiment: ELISA, supernate
# key: entry, value: OD
Measure name: OD (OD)

Binder | Units label | Result
mAb 8F8 (antibody, V domains shown) VH: EVQLLESGGGVVQPGRSLRLSCAASGFMFSSYVMHWVRQPPGKGLEWVAVIWYDGSKTYFADSMRGRLTVSRDNSKNALYLQMNRLRAEDTAVYYCARQQDSGYSGPEVSYYSHYGMDVWGQGTTVIVS VL: QSVLTQSPSASGTPGRAITISCSGSSSNIGSNPVNWYQQLPGAAPKLLIYADEHRPSGVPDRFSGPKSGTSASLAISGLQSEDEADYYCAAWDDSLSGPAVVFGGGTKLTVLG | OD | 0.071
mAb 7A13 (antibody, V domains shown) VH: QVQLQESAPGLVKPSGTLSLTCAVSGASLSSSDWWTWVRQPPGKGLEWIGEIHHGGSTNSNPSLQSRVTISIDKSKKQFSLKLTSVTVADTAVYYCARAPGADAGPYSENIHHWGQGTLVTVS VL: QLVLTQSPSASASLGASVKLTCTLSSRHSDYAIGWHQQQPGKGPRYLMKLNPDGSHTKGDGIPDRFSGSSSGAERYLTISNLLSEDEADYYCQTWGTGIQVFGGGTRLTVIS | OD | 0.068
mAb 25J3 (antibody, V domains shown) VH: QVQLQESGPGLVRPSETLSLTCNVSGDSINDYYWSWIRQPPGKGLEWIGYIYYSGSTNYNPSLNSRVTISVEMSKNQFSLILNSVTAADTAVYYCARVDYDSGGSFDPWGQGTLVTVS VL: QSVLTQPPSVSGAPGQRVTISCTGSSSNIGAGYDVHWYQQLPGTAPKLLIYGNSNRPSGVPDRFSGSKSGTSASLAITGLQAEDEADFYCQSYDSRLSGYVFGTGTKVTVLG | OD | 0.068
mAb 18G6 (antibody, V domains shown) VH: QVQLKESGPGLVKPSETLSLTCTVSGGSISSSNYNWGWIRQPPGKGLEWIGSVYYSGSTYFNPSLKSRVTISVDTSKNQFSLKLTSVTAADTAVYYCARLIAFYYDTNGYTWGQGTLVTVS VL: NSIMTQSPFTLSASVGDKVTITCRASQSISPWLAWYQQKPGKAPKLLIYKASSLETGVPSRFSGSESGTEFTLTISGLQPDDFATYYCQQYSSFARTFGQGTKVEIKR | OD | 0.071
